# testSystem: VEGFR-2 (Homo sapiens)
# Sequence (P35968 834-1162 limits assumed, species assumed): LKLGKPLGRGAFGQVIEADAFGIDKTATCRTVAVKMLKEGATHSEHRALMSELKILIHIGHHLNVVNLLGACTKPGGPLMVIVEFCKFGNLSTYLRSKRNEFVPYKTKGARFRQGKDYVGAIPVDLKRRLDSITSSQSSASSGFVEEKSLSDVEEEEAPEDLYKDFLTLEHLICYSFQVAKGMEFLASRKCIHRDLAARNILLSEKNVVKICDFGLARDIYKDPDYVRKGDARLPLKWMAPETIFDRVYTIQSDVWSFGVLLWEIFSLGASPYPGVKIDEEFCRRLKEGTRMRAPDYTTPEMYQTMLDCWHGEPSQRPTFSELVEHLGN
pIC50: −log10 of the molar value.
property: pIC50

Field: example entries. Status: answers known.
CCOC(=O)c1cnc2c(c1)C(=CNc1ccc3ncccc3c1)C(=O)N2 : 6.00 to 7.00
NS(=O)(=O)c1ccc(NC=C2C(=O)Nc3ncc(-c4ccco4)cc32)cc1 : 5.00 to 6.00

Write down the reported pIC50 of "CCOC(=O)c1cnc2c(c1)C(=CNc1ccc(S(N)(=O)=O)cc1)C(=O)N2" , test system: VEGFR-2 (Homo sapiens).
6.00 to 7.00

Write down the reported pIC50 of "NS(=O)(=O)c1ccc(NC=C2C(=O)Nc3ncc(Br)cc32)cc1" , test system: VEGFR-2 (Homo sapiens).
6.00 to 7.00

Write down the reported pIC50 of "NS(=O)(=O)c1ccc(NC=C2C(=O)Nc3ncc(-c4ccsc4)cc32)cc1" , test system: VEGFR-2 (Homo sapiens).
6.00 to 7.00

Write down the reported pIC50 of "O=C1Nc2ncc(-c3ccco3)cc2C1=CNc1ccc2cn[nH]c2c1" , test system: VEGFR-2 (Homo sapiens).
6.00 to 7.00

Write down the reported pIC50 of "O=C1Nc2cccnc2C1=CNc1ccc2cn[nH]c2c1" , test system: VEGFR-2 (Homo sapiens).
5.00 to 6.00

Write down the reported pIC50 of "O=C1Nc2ncc(-c3ccco3)cc2C1=CNc1ccc2ncccc2c1" , test system: VEGFR-2 (Homo sapiens).
5.00 to 6.00

Write down the reported pIC50 of "O=C1Nc2ncc(Br)cc2C1=CNc1ccc2ncccc2c1" , test system: VEGFR-2 (Homo sapiens).
6.00 to 7.00

----------
What follows is a record of pIC50 for CDK2 (Homo sapiens).
pIC50: −log10 of the molar value.

Field: example entries. Status: answers known.
NS(=O)(=O)c1ccc(NC=C2C(=O)Nc3ncc(Br)cc32)cc1 [Example 17] : 7.00 to 8.00
NS(=O)(=O)c1ccc(NC=C2C(=O)Nc3ccncc32)cc1 [Example 1] : 7.00 to 8.00

Write down the reported pIC50 of NS(=O)(=O)c1ccc(NC=C2C(=O)Nc3ncc(-c4ccsc4)cc32)cc1 [Example 14] , test system: CDK2 (Homo sapiens).
6.00 to 7.00

Write down the reported pIC50 of CCOC(=O)c1cnc2c(c1)C(=CNc1ccc3ncccc3c1)C(=O)N2 [Example 25] , test system: CDK2 (Homo sapiens).
6.00 to 7.00

Write down the reported pIC50 of O=C1Nc2ncc(-c3ccsc3)cc2C1=CNc1ccc2cn[nH]c2c1 [Example 15] , test system: CDK2 (Homo sapiens).
6.00 to 7.00

Write down the reported pIC50 of O=C1Nc2ncc(Br)cc2C1=CNc1ccc2ncccc2c1 [Example 19] , test system: CDK2 (Homo sapiens).
7.00 to 8.00

----------
# testSystem: c-fms (Homo sapiens)
# Construct: The c-fms intracellular domain was expressed from a baculovirus expression system; GST (N)
# Sequence (P07333 539-972 limits assumed): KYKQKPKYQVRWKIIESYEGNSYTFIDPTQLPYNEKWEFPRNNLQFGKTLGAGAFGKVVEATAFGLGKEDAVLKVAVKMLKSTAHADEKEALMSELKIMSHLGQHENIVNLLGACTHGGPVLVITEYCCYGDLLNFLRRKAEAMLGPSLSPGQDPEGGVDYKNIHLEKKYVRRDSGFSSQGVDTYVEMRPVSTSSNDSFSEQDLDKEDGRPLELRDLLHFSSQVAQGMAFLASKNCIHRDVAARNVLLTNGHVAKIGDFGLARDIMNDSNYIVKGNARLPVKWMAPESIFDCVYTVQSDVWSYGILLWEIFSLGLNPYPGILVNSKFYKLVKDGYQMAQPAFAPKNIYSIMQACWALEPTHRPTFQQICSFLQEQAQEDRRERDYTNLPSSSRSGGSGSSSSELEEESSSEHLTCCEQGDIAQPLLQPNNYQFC
# procedureDetails: c-fms protein kinase assay
# conditionDetails: kinase inhibition, Table 3
# Source text: c-fms protein kinase assays utilized the peptide substrate, biotin-[…]-NH2 as the phosphoryl group acceptor. […] The reaction products were quantified using Scintillation Proximity technolgy. […] Plates were sealed and counted in a Packard Topcount scintillation counter. […]
Reported values of IC50 for individual entries

O=C1Nc2ncc(-c3ccccc3)cc2C1=CNc1ccc2ncccc2c1 : 1 to 10 µM
CCOC(=O)c1cnc2c(c1)C(=CNc1ccc3cn[nH]c3c1)C(=O)N2 : 1 to 10 µM

Need IC50, item "O=C1Nc2ncc(-c3ccsc3)cc2C1=CNc1ccc2ncccc2c1"
0.1 to 1 µM

Need IC50, item "O=C1Nc2ncc(-c3ccccc3)cc2C1=CNc1ccc2cn[nH]c2c1"
1 to 10 µM

Need IC50, item "O=C1Nc2ncccc2C1=CNc1ccc2cn[nH]c2c1"
1 to 10 µM

Need IC50, item "O=C1Nc2ncc(-c3ccsc3)cc2C1=CNc1ccc2cn[nH]c2c1"
1 to 10 µM

Need IC50, item "O=C1Nc2ncc(-c3ccco3)cc2C1=CNc1ccc2ncccc2c1"
1 to 10 µM

Need IC50, item "O=C1Nc2ncc(-c3ccco3)cc2C1=CNc1ccc2cn[nH]c2c1"
1 to 10 µM

Need IC50, item "NS(=O)(=O)c1ccc(NC=C2C(=O)Nc3ncc(Br)cc32)cc1"
1 to 10 µM

----------
# testSystem: c-fms (Homo sapiens)
# Construct: The c-fms intracellular domain was expressed from a baculovirus expression system; GST (N)
# procedureDetails: c-fms protein kinase assay
# conditionDetails: kinase inhibition, Table 3
pIC50: −log10 of the molar value.
Reported values of pIC50 for individual entries

Field: example entries. Status: answers known.
NS(=O)(=O)c1ccc(NC=C2C(=O)Nc3ncc(-c4ccco4)cc32)cc1 : 6.00 to 7.00
O=C1Nc2ncc(Br)cc2C1=CNc1ccc2cn[nH]c2c1 : 5.00 to 6.00
O=C1Nc2nc(Cl)ccc2C1=CNc1ccc2ncccc2c1 : 5.00 to 6.00
O=C1Nc2ncc(Br)cc2C1=CNc1ccc2ncccc2c1 : 5.00 to 6.00
O=C1Nc2nc(Cl)ccc2C1=CNc1ccc2cn[nH]c2c1 : 5.00 to 6.00
NS(=O)(=O)c1ccc(NC=C2C(=O)Nc3ncc(-c4ccsc4)cc32)cc1 : 6.00 to 7.00

API: the following record is the query input.
Need pIC50, item "CCOC(=O)c1cnc2c(c1)C(=CNc1ccc(S(N)(=O)=O)cc1)C(=O)N2"
5.00 to 6.00
